experiment: MHET released, HPLC; higher = more MHET released; extreme values may be limits of the assay; settings: PET substrate: cryPow; 60 °C; pH 9.5; 24 h
assay_metric: MHET released (mM)
Answers are plain numbers, in mM.

Below, 6 sequences whose answers are already recorded.
sequence_chain	value_unit	readout_value
QTNPYARGPNPTAASLEASAGPFTVRSFTVSRPSGYGAGTVYYPTNAGGTVGAIAIVPGYTARQSSIKWWGPRLASHGFVVITIDTNSTFDYPSSRSSQQMAALRQVASLNGDSSSPIYGKVDTARMGVMGHSMGGGASLRSAANNPSLKAAIPQAPWDSQTNFSSVTVPTLIFACENDSIAPVNSHALPIYDSMSRNAKQFLEINGGSHSCANSGNSNQALIGKKGVAWMKRFMDNDTRYSTFACENPNSTAVSDFRTANCS [DuraPETase]	mM	0.123
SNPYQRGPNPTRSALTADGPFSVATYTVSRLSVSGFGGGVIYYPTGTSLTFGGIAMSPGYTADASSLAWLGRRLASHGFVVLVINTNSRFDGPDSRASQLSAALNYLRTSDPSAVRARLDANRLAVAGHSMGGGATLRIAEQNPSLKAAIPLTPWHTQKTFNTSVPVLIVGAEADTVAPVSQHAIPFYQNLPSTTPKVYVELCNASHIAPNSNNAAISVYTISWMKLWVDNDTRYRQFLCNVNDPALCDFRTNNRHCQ [LCC-ICCG DAQI]	mM	0.155
SNPYQRGPNPTRSALTATGPFSVATYTVSRLLVSGFGGGVIYYPTGTSLTFGGIAMSPGYTADASSLAWLGRRLASHGFVVLVINTNSRFDGPDSRARQLSAALNYLRTSSPSAVRARLDANRLAVAGHSMGGGGTLRIAEQNPSLKAAVPLTPWHPDKTFNTSVPVLIVGAQADTVAPVSQHAIPFYQNLPSTTPKVYVELCNASHIAPNSPNAAISVYTISWMKLWVDNDTRYRQFLCNVNDPALCDFRTNNRHCQ [LCC-ICCG I6M]	mM	0.0594
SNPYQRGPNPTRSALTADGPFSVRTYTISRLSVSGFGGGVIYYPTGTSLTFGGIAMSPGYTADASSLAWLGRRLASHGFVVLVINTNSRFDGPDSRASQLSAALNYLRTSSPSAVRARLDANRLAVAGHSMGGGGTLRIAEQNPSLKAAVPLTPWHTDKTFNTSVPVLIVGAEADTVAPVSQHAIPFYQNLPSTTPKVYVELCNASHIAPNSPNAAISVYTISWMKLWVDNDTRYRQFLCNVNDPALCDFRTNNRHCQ [LCC-ICCG RIP]	mM	0.0905
QTNPYARGPNPTAASLEASAGPFTVRSFTVARPVGYGAGTVYYPTNAGGTVGAIAIVPGYTATQSSINWWGPRLASHGFVVITIDTNSTLDKPESRSSQQMAALRQVASLNGTSSSPIYGKVDTARGGVMGWSMGGGGSLISAANNPSLKAAAVMAPWHSSTNFSSVTVPTLIFACENDRIAPVKEYALPIYDSMSLNAKQFLEICGGSHSCACSGNSNQALIGMKGVAWMKRFMDNDTRYSQFACENPNSTAVCDFRTANCS [HotPETase]	mM	0.174
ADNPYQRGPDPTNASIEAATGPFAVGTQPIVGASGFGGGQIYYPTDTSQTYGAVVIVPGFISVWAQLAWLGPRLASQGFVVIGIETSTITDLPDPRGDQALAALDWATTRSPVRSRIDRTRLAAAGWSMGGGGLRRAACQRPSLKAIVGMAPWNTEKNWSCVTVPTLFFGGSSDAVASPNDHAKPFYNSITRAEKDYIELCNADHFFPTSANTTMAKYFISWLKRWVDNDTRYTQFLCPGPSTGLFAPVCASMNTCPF [CaPETaseM9]	mM	0.0663

Entry SNPYQRGPNPTRSALTADGPFSVATYTVSRLSVSGFGGGVIYYPTGTSLTFGGIAMSPGYTADASSLAWLGRRLASHGFVVLVINTNSRFDGPDSRASQLSAALNYLRTSSPSAVRARLDANRLAVAGHSMGGGGTLRIAEQNPSLKAAVPLTPWHTDKTFNTSVPVLIVGAEADTVAPVSQHAIPFYQNLPSTTPKVYVELCNASHIAPNSNNAAISVYTISWMKLWVDNDTRYRQFLCNVNDPALCDFRTNNRHCQ [LCC-ICCG] has what MHET released? 0.165

* * *

assay: BHET released, HPLC; higher = more BHET released; extreme values may be limits of the assay; details: PET substrate: aFilm; 70 °C; pH 7.5; 24 h
assay_metric: BHET released
Answer format: number, then unit.

Below, 2 sequences whose answers are already recorded.
sequence_chain	BHET released
QTNPYARGPDPTAASLEASAGPFTVRSFTVSRPSGYGAGTVYYPTNAGGTVGAIAIVPGYTARQSSIKWWGPRLASHGFVVITIDTNSTLDQPESRSSQQMAALEQVASLNGTSSSPIYGKVDTARMGVMGWSMGGGGSLISACNNPSLKAAVVQAPWHSSTNFSCVTVPTLIFACENDSIAPVNSSALPIYDSMSENAKQFLEICGGSHSCANTGNSDQALIGKKGVAWMKRFMDNDTRYSTFACENPNSTRVCDFRTANCS [Z1-PETase]	0 mM
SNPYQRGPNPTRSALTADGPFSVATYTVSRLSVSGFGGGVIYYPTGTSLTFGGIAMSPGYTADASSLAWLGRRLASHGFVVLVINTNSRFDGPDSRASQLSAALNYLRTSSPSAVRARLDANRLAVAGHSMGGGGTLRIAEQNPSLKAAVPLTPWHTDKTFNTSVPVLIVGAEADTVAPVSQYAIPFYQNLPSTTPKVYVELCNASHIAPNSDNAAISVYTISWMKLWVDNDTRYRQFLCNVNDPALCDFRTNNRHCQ [LCC-A2]	0.0146 mM

Consider the additional sequence presented here.
Entry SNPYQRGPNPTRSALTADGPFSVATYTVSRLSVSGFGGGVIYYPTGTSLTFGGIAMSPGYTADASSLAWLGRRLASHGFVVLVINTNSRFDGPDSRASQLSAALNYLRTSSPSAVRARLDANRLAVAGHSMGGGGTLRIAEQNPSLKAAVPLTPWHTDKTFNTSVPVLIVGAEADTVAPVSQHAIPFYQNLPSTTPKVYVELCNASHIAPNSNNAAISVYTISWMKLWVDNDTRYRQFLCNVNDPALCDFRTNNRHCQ [LCC-ICCG] has what BHET released? 0.0808 mM

* * *

I'd appreciate it if you could supply MHET released values for the items below.
experiment: MHET released, HPLC; higher = more MHET released; extreme values may be limits of the assay; conditions: PET substrate: cryPow; 70 °C; pH 4.5; 24 h
Numbers only, in mM.

Below, 2 sequences whose answers are already recorded.
sequence_chain	value_unit	MHET released
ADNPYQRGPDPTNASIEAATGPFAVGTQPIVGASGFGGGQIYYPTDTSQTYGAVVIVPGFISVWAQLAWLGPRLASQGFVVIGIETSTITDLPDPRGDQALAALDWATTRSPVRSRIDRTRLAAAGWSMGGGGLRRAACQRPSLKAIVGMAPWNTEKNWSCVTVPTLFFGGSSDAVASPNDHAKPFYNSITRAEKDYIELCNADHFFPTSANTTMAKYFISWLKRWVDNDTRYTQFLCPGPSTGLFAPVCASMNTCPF [CaPETaseM9]	mM	0
QDNPYERGPDPTEDSIEAIRGPFSVATERVSSFASGFGGGTIYYPRETDEGTFGAVAVAPGFTASQGSMSWYGERVASHGFIVFTIDTNTRLDAPGQRGRQLLAALDYLVERSDRKVRERLDPNRLAVMGHSMGGGGSLEATVMRPSLKASIPLTPWHLDKTWGQVQVPTFIIGAELDTIAPVSTHAKPFYESLPSSLPKAYMELCGATHFAPNIPNTTIAKYVISWLKRFVDEDTRYSQFLCPNPTDRAICEYRSTCPY [Cut190*SS]	mM	0

Entry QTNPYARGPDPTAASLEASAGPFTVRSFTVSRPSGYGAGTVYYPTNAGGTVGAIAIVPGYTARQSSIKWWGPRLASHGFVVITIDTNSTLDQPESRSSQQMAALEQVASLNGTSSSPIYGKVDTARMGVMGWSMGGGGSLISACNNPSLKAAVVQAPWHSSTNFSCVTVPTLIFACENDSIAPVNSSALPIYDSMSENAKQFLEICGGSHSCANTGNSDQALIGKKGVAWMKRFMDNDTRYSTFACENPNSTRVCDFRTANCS [Z1-PETase] has what MHET released? 0

* * *

I'd appreciate it if you could supply PET hydrolysis product formed values for the items below.
assay: PET hydrolysis product formed (TPA+MHET+BHET, UV-Vis) per mg enzyme (mmol/mg enzyme); higher = more PET depolymerisation activity; extreme values may be limits of the assay; details: PET substrate: cryPow; 70 °C; pH 9.5; 24 h
Numbers only.

Below, 5 sequences whose answers are already recorded.
sequence_chain	PET hydrolysis product formed
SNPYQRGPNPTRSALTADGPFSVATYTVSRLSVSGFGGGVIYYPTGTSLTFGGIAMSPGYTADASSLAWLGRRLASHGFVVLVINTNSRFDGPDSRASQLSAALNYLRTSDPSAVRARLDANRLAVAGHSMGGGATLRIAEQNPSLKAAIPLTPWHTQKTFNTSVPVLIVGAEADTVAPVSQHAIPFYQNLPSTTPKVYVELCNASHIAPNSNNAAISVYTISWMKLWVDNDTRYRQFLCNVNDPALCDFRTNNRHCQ [LCC-ICCG DAQI]	0.132
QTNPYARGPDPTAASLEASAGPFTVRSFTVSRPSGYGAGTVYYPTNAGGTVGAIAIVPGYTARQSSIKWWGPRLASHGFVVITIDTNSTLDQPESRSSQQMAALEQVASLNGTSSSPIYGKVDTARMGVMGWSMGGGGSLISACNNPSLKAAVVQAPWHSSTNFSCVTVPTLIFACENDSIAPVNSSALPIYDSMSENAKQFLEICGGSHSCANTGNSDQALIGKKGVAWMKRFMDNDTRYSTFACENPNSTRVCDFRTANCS [Z1-PETase]	0.0592
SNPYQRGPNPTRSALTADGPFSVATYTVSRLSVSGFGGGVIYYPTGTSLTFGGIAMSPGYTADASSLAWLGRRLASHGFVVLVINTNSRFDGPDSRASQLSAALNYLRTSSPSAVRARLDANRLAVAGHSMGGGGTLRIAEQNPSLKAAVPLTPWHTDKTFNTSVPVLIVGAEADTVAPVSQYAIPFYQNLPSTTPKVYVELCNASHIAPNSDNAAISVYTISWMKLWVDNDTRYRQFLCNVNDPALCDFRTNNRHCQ [LCC-A2]	0.205
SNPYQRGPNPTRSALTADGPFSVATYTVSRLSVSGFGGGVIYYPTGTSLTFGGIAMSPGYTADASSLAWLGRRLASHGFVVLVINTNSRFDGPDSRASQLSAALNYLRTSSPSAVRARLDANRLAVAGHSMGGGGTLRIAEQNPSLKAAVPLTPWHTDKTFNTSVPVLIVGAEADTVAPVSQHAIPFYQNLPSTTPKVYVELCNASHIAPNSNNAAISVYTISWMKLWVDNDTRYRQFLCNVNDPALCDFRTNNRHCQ [LCC-ICCG]	0.131
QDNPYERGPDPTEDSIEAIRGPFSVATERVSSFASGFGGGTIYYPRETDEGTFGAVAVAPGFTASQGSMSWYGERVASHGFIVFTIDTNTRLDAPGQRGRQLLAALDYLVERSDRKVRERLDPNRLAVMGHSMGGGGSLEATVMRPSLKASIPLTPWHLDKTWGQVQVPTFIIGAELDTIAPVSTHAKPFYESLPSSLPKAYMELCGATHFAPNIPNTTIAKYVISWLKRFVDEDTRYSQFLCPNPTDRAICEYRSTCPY [Cut190*SS]	0.0149

Hello, I would appreciate it if you could give PET hydrolysis product formed for each entry below.
1. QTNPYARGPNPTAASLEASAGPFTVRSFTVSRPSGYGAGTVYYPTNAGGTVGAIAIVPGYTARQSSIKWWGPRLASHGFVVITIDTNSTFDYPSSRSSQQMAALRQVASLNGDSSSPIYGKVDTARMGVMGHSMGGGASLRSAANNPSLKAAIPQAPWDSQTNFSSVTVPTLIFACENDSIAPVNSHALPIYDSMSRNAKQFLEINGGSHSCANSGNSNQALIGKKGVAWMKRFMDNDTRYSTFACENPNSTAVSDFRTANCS [DuraPETase]
2. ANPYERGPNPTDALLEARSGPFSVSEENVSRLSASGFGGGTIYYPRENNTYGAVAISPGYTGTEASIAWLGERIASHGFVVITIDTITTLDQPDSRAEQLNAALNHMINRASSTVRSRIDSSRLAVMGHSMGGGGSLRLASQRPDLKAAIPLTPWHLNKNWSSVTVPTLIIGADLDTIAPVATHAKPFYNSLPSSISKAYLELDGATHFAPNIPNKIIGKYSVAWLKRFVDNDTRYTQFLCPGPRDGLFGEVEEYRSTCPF [TfCut2]

0
0
